The measured values listed here are drawn from ChEMBL document CHEMBL4052591.

test system: Candida albicans; assay: Inhibition of Candida albicans MDR1 expressed in Saccharomyces cerevisiae AD assessed as ratio of MIC80 of fluconazole in combinantion with compound to MIC80 of fluconazole alone for Saccharomyces cerevisiae AD by checkerboard method
measured.endpoint: Ratio
Please give only the number in your answer, with no unit.

• CC(=O)O[C@H]1[C@@H](OC(C)=O)C(C)(C)/C=C/[C@@](C)(O)C(=O)[C@@]2(O)C[C@@](C)(OC(C)=O)[C@H](OC(C)=O)[C@@H]2[C@H]2OC(=O)CC[C@@]2(OC(C)=O)[C@@H]1OC(=O)C(C)C = 0.5

So what does the record say about Ratio for C=C1[C@@H](OC(C)=O)[C@H]2[C@@H](OC(=O)c3ccccc3)[C@@H](C)C[C@]2(O)[C@H](O)[C@H](C)/C=C/C(C)(C)C(=O)[C@H](OC(=O)C(C)C)[C@H]1OC(C)=O ? 1

Same question, C=C1[C@@H](OC(C)=O)[C@H]2[C@@H](OC(=O)COC(=O)c3ccccc3)[C@](C)(OC(C)=O)C[C@]2(O)C(=O)[C@@H](C)/C=C/C(C)(C)[C@H](OC(C)=O)[C@H](OC(C)=O)[C@H]1OC(=O)C(C)C this time 1

Then what about the compound C=C1[C@@H](OC(=O)C(C)CC)[C@H]2[C@@H](O)[C@](C)(OC(C)=O)C[C@]2(O)C(=O)[C@@H](C)/C=C/C(C)(C)[C@H](OC(C)=O)[C@H](OC(C)=O)[C@H]1OC(=O)c1ccccc1 (some centres undefined) ? 1

###

test system: Candida albicans; test: Inhibition of Candida albicans CDR1 expressed in Saccharomyces cerevisiae AD assessed as ratio of MIC80 of compound in combinantion with fluconazole to MIC80 of compound alone for Saccharomyces cerevisiae AD by checkerboard method
measured.endpoint: Ratio
Provide a numeric answer; units are not to be included.

Recorded Ratio, per entry:
- C=C1[C@@H](OC(=O)C(C)CC)[C@H]2[C@@H](O)[C@](C)(OC(C)=O)C[C@]2(O)C(=O)[C@@H](C)/C=C/C(C)(C)[C@H](OC(C)=O)[C@H](OC(C)=O)[C@H]1OC(=O)c1ccccc1 (some centres undefined): 0.5
- CC(=O)O[C@H]1[C@@H](OC(C)=O)C(C)(C)/C=C/[C@@](C)(O)C(=O)[C@@]2(O)C[C@@](C)(OC(C)=O)[C@H](OC(C)=O)[C@@H]2[C@H]2OC(=O)CC[C@@]2(OC(C)=O)[C@@H]1OC(=O)C(C)C: 1
- C=C1[C@@H](OC(C)=O)[C@H]2[C@@H](OC(=O)COC(=O)c3ccccc3)[C@](C)(OC(C)=O)C[C@]2(O)C(=O)[C@@H](C)/C=C/C(C)(C)[C@H](OC(C)=O)[C@H](OC(C)=O)[C@H]1OC(=O)C(C)C: 1

Please find the next molecule below.
Lab note: need Ratio with Candida albicans for entry C=C1[C@@H](OC(C)=O)[C@H]2[C@@H](OC(=O)c3ccccc3)[C@@H](C)C[C@]2(O)[C@H](O)[C@H](C)/C=C/C(C)(C)C(=O)[C@H](OC(=O)C(C)C)[C@H]1OC(C)=O , please look it up. 1

###

tested on: Saccharomyces cerevisiae; assay: Antifungal activity against Saccharomyces cerevisiae AD1-8u(-) after 48 hrs; format: functional
measured.endpoint: MIC80 (µM)
Respond numerically; units are µM and should not be typed.

Look over these answered cases.
- CC(=O)O[C@H]1[C@@H](OC(C)=O)C(C)(C)/C=C/[C@@](C)(O)C(=O)[C@@]2(O)C[C@@](C)(OC(C)=O)[C@H](OC(C)=O)[C@@H]2[C@H]2OC(=O)CC[C@@]2(OC(C)=O)[C@@H]1OC(=O)C(C)C: 682
- C=C1[C@@H](OC(C)=O)[C@H]2[C@@H](OC(=O)COC(=O)c3ccccc3)[C@](C)(OC(C)=O)C[C@]2(O)C(=O)[C@@H](C)/C=C/C(C)(C)[C@H](OC(C)=O)[C@H](OC(C)=O)[C@H]1OC(=O)C(C)C: 324
- C=C1[C@@H](OC(=O)C(C)CC)[C@H]2[C@@H](O)[C@](C)(OC(C)=O)C[C@]2(O)C(=O)[C@@H](C)/C=C/C(C)(C)[C@H](OC(C)=O)[C@H](OC(C)=O)[C@H]1OC(=O)c1ccccc1 (some centres undefined): 719

Attention now turns to another entry.
Could you share which MIC80 value was measured for C=C1[C@@H](OC(C)=O)[C@H]2[C@@H](OC(=O)c3ccccc3)[C@@H](C)C[C@]2(O)[C@H](O)[C@H](C)/C=C/C(C)(C)C(=O)[C@H](OC(=O)C(C)C)[C@H]1OC(C)=O ? 792
